target: CYP2C9 (Homo sapiens, UniProt P11712); construct: host or cells: yeast microsomes (Saccharosomes); experiment: CYP2C9 inhibition in Saccharosomes; format: biochemical; conditions: Saccharosomes containing CYP2C9
Sequence (P11712 whole entry): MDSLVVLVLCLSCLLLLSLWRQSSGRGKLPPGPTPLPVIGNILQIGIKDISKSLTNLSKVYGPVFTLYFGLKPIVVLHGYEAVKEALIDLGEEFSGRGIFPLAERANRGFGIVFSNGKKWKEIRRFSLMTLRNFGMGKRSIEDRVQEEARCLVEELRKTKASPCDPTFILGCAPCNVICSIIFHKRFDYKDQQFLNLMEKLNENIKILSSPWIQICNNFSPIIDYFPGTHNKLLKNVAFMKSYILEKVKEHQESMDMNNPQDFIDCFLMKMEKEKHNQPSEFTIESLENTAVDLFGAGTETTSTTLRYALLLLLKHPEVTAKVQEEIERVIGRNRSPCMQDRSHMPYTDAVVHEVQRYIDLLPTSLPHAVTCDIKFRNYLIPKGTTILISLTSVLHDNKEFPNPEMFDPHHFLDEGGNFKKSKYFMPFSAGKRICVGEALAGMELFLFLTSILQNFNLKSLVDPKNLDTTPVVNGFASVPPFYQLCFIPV
property.label: inhibition at 20 µM
Include the unit right after the number.

[Q] Tell me its inhibition at 20 µM given COc1c(C(=O)/C=C/c2cccnc2)c(O)c(OC)c2occc12 [Compound 8] as the entry.
[A] 62%

---

Target: CYP1A1 (Homo sapiens, UniProt P04798)
Construct: host or cells: yeast microsomes (Saccharosomes)
Sequence (P04798 1-512): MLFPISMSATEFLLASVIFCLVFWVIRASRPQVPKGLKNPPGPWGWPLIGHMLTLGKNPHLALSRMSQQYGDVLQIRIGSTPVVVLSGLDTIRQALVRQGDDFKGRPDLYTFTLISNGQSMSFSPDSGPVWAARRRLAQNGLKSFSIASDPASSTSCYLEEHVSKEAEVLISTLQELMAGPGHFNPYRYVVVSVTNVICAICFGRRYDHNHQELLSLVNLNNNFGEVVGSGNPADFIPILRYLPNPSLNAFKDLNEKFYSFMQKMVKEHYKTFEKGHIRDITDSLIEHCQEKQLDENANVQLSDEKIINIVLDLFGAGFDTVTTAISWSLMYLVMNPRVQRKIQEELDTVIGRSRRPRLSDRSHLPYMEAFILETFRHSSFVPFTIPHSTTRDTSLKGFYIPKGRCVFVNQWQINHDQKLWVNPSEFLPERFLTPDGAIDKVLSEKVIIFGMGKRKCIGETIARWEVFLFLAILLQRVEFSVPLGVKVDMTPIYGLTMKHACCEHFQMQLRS
Assay: In-vitro CYP450 1A1 enzyme inhibition in Saccharosomes
Format: biochemical
Details: human, Saccharosomes containing CYP1A1, pH 7.4, probe ethoxyresorufin (5 μM), % inhibition of CYP1A1 in Saccharosomes at 10 μM, 10 μM test compound, 5 μM ethoxyresorufin
Given measured inhibition at 20 min, 10 μM, output yes (1) if it is greater than or equal to 40% and no (0) if not.

COc1c(C(=O)/C=C/c2ccccc2)c(O)c(OC)c2occc12    yes (1)

[Q] Is inhibition at 20 min, 10 μM at least 40%? Consider COc1c(C(=O)/C=C/c2c(Cl)cccc2Cl)c(O)c(OC)c2occc12
[A] no (0)

[Q] Is inhibition at 20 min, 10 μM at least 40%? Consider COc1c(C(=O)/C=C/c2ccc(Cl)cc2Cl)c(O)c(OC)c2occc12
[A] yes (1)

[Q] Please indicate if the recorded inhibition at 20 min, 10 μM for CCOc1ccc(Br)cc1/C=C/C(=O)c1c(O)c(OC)c2occc2c1OC meets or exceeds 40%.
[A] yes (1)

[Q] Test whether the compound COc1cc(OC)c(OC)cc1/C=C/C(=O)c1c(O)c(OC)c2occc2c1OC records inhibition at 20 min, 10 μM of 40% or higher.
[A] yes (1)

[Q] Has COc1ccc(/C=C/C(=O)c2c(O)c(OC)c3occc3c2OC)cc1Br a recorded inhibition at 20 min, 10 μM greater than or equal to 40%?
[A] no (0)

[Q] Please indicate if the recorded inhibition at 20 min, 10 μM for O=c1cc(-c2ccccc2)oc2c1ccc1ccccc12 [Alpha-naphthoflavone, reference compound] meets or exceeds 40%.
[A] yes (1)

[Q] Kindly determine if inhibition at 20 min, 10 μM recorded for COc1c(C(=O)/C=C/c2cccnc2)c(O)c(OC)c2occc12 is above or exactly 40%.
[A] yes (1)

[Q] State whether the measured inhibition at 20 min, 10 μM reaches 40%, counting equality as reaching it, for COc1c(C(=O)/C=C/c2ccc(Cl)cc2)c(O)c(OC)c2occc12
[A] yes (1)

[Q] Hello, I need to know if COc1c(C(=O)/C=C/c2c(F)c(F)c(F)c(F)c2F)c(O)c(OC)c2occc12 has measured inhibition at 20 min, 10 μM not below 40%. Thanks!
[A] no (0)

[Q] // inclusive: inhibition at 20 min, 10 μM at least 40%? input: COc1c2occc2c(OC)c2c(=O)cc(C)oc12 [Compound 1, Khellin, reference compound]
[A] yes (1)

---

molecular target: CYP1A1 (Homo sapiens, UniProt P04798); construct: host or cells: yeast microsomes (Saccharosomes); assay: CYP1A1 inhibition in HEK293 cells transfected with pcDNA3.1/CYP1A1 (live cells); type: cell-based; settings: human, HEK293 cells transfected with pcDNA3.1/CYP1A1 (live cells), probe EROD (5 μM), % inhibition of CYP1A1 in HEK293 cells at 10 μM, 10 μM, 5 μM EROD
Label true when inhibition at 10 μM is at or above 70%; otherwise label false.

O=c1cc(-c2ccccc2)oc2c1ccc1ccccc12 [Alpha-naphthoflavone, reference compound]    false

[Q] I'd appreciate it if you could say whether COc1c(C(=O)/C=C/c2ccsc2)c(O)c(OC)c2occc12 has inhibition at 10 μM at least equal to 70%.
[A] true

[Q] Quick check, inhibition at 10 μM >= 70%? COc1c(C(=O)/C=C/c2c(Cl)cccc2Cl)c(O)c(OC)c2occc12
[A] false

[Q] Is it the case that COc1c(C(=O)/C=C/c2ccc(F)cc2F)c(O)c(OC)c2occc12 has inhibition at 10 μM reaching or exceeding 70%?
[A] true

[Q] Could you tell me if the measured inhibition at 10 μM of COc1c(C(=O)/C=C/c2ccccc2)c(O)c(OC)c2occc12 reaches 70% or more?
[A] true

[Q] Is inhibition at 10 μM for COc1c(C(=O)/C=C/c2cccnc2)c(O)c(OC)c2occc12 at or above 70%?
[A] true

[Q] Evaluate COc1ccc(/C=C/C(=O)c2c(O)c(OC)c3occc3c2OC)cc1Br : inhibition at 10 μM at minimum 70%?
[A] true

[Q] Dear colleague, could you confirm whether CCOc1ccc(Br)cc1/C=C/C(=O)c1c(O)c(OC)c2occc2c1OC has inhibition at 10 μM at or above 70%?
[A] false

[Q] API: above_or_equal(metric=inhibition at 10 μM, cutoff=70%) for item COc1c(C(=O)/C=C/c2ccc(F)c(Br)c2)c(O)c(OC)c2occc12
[A] true

[Q] Reported inhibition at 10 μM at or above 70%? COc1c(C(=O)/C=C/c2ccccc2Cl)c(O)c(OC)c2occc12
[A] false

---

Each entry below carries its recorded inhibition at 10 μM.
target: CYP1A1 (Homo sapiens); construct: host or cells: yeast microsomes (Saccharosomes); assay: CYP1A1 inhibition in HEK293 cells transfected with pcDNA3.1/CYP1A1 (live cells); type: cell-based; conditions: human, HEK293 cells transfected with pcDNA3.1/CYP1A1 (live cells), probe EROD (5 μM), % inhibition of CYP1A1 in HEK293 cells at 10 μM, 10 μM, 5 μM EROD
Use % as the unit, but write only the number.

COc1c(C(=O)/C=C/c2ccc(F)cc2)c(O)c(OC)c2occc12 [Compound 6]    79.6

Kindly review the next compound as well.
[Q] Tell me inhibition at 10 μM reported for COc1ccc(/C=C/C(=O)c2c(O)c(OC)c3occc3c2OC)cc1 [Compound 9]
[A] 55.7

---

molecular target: CYP1A1 (Homo sapiens); construct: host or cells: yeast microsomes (Saccharosomes); experiment: CYP1A1 inhibition in HEK293 cells transfected with pcDNA3.1/CYP1A1 (live cells); type: cell-based; conditions: 10 μM, 5 μM EROD
property.label: % inhibition of CYP1A1 in HEK293 cells at 10 μM

COc1cc(OC)c(OC)cc1/C=C/C(=O)c1c(O)c(OC)c2occc2c1OC    96.8%
COc1c(C(=O)/C=C/c2cccnc2)c(O)c(OC)c2occc12    99.2%
COc1c(C(=O)/C=C/c2ccc(F)c(Br)c2)c(O)c(OC)c2occc12    82.3%

Continue with the next molecule.
[Q] // Input: COc1c(C(=O)/C=C/c2ccc(Cl)cc2)c(O)c(OC)c2occc12 . Output its % inhibition of CYP1A1 in HEK293 cells at 10 μM only.
[A] 85.7%

---

molecular target: CYP1B1 (Homo sapiens); assay: In-vitro CYP450 1B1 enzyme inhibition in Saccharosomes; assay type: biochemical; parameters: purchased CYP Design Ltd; host or cells: yeast microsomes (Saccharosomes); settings: human, Saccharosomes (yeast-derived) with recombinant CYP1B1, probe 7-ethoxyresorufin (5 μl of 0.1 mM), % inhibition of CYP1B1 in Saccharosomes at 10 μM, 10 μM test compound, 7-ethoxyresorufin
Sequence (Q16678 whole entry): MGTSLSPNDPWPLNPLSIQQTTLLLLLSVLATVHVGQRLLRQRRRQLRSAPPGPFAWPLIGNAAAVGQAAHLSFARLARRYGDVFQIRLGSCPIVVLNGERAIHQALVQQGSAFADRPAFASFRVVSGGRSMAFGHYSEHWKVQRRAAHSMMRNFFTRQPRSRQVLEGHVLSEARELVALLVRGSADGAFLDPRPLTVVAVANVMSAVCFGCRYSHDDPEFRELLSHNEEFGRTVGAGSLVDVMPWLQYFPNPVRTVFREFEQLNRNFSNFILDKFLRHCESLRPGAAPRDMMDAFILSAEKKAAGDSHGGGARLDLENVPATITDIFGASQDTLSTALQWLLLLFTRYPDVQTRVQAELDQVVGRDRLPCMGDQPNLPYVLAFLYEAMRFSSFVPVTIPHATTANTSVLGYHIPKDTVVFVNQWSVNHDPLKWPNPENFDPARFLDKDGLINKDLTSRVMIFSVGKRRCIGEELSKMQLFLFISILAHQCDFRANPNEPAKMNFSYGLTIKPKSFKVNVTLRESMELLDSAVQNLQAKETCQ
inhibition at 10 μM vs 30%: at or above is Fulfilled, below is Not fulfilled.

COc1c(C(=O)/C=C/c2ccc3ccccc3c2)c(O)c(OC)c2occc12    Not fulfilled
COc1c(C(=O)/C=C/c2ccc(Cl)cc2Cl)c(O)c(OC)c2occc12    Fulfilled
COc1c(C(=O)/C=C/c2ccc(F)cc2)c(O)c(OC)c2occc12    Fulfilled
COc1c(C(=O)/C=C/c2ccc3cc4ccccc4cc3c2)c(O)c(OC)c2occc12    Not fulfilled
COc1c(C(=O)/C=C/c2cccnc2)c(O)c(OC)c2occc12    Fulfilled

[Q] Does the compound COc1c(C(=O)/C=C/c2ccsc2)c(O)c(OC)c2occc12 have recorded inhibition at 10 μM that is 30% or more?
[A] Fulfilled

[Q] Does inhibition at 10 μM meet or surpass 30% for COc1c(C(=O)/C=C/c2ccc3c(c2)OCO3)c(O)c(OC)c2occc12 ?
[A] Fulfilled

[Q] Entry COc1c(C(=O)/C=C/c2ccccc2F)c(O)c(OC)c2occc12 : is its inhibition at 10 μM no less than 30%?
[A] Fulfilled
